assay: total protein half-life in vivo (active degradation + dilution); higher = more stable protein; details: E. coli NCM3722 delta-clpP; growth: N-lim chemostat; doubling time 6 h
quantity_kind: total protein half-life in vivo (h)
Please reply with the bare figure in h and do not write the unit itself.

sequence_string	quantity_kind	recorded_measurement
MLIPWQDLSPETLENLIESFVLREGTDYGEHERTLEQKVADVKRQLQCGEAVLVWSELHETVNIMPRSQFRE	total protein half-life in vivo	3.21
MATLKDIAIEAGVSLATVSRVLNDDPTLNVKEETKHRILEIAEKLEYKTSSARKLQTGAVNQHHILAIYSYQQELEINDPYYLAIRHGIETQCEKLGIELTNCYEHSGLPDIKNVTGILIVGKPTPALRAAASALTDNICFIDFHEPGSGYDAVDIDLARISKEIIDFYINQGVNRIGFIGGEDEPGKADIREVAFAEYGRLKQVVREEDIWRGGFSSSSGYELAKQMLAREDYPKALFVASDSIAIGVLRAIHERGLNIPQDISLISVNDIPTARFTFPPLSTVRIHSEMMGSQGVNLVYEKARDGRALPLLVFVPSKLKLRGTTR	total protein half-life in vivo	6.95
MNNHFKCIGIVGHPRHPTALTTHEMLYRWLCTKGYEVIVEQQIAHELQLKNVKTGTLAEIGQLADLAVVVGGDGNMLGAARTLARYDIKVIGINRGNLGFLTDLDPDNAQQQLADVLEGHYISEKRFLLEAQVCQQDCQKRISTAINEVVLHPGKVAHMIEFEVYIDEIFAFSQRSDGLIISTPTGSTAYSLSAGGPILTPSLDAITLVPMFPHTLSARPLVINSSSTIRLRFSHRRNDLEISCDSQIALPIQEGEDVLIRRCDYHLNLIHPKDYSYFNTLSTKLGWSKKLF [P0A7B3]	total protein half-life in vivo	4.25
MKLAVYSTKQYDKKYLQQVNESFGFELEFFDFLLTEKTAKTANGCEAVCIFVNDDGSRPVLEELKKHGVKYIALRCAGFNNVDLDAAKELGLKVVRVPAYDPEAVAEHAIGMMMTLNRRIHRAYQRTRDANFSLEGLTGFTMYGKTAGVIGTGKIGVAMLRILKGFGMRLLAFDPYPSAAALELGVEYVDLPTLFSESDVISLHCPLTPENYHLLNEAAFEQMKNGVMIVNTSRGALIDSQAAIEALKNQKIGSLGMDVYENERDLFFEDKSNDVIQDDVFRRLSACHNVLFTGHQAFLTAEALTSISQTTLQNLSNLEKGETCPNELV	total protein half-life in vivo	5.65
MAIALVTGGSRGIGRATALLLAQEGYTVAVNYQQNLHAAQEVMNLITQAGGKAFVLQADISDENQVVAMFTAIDQHDEPLAALVNNAGILFTQCTVENLTAERINRVLSTNVTGYFLCCREAVKRMALKNGGSGGAIVNVSSVASRLGSPGEYVDYAASKGAIDTLTTGLSLEVAAQGIRVNCVRPGFIYTEMHASGGEPGRVDRVKSNIPMQRGGQAEEVAQAIVWLLSDKASYVTGSFIDLAGGK	total protein half-life in vivo	5.48

Request: Using the record for `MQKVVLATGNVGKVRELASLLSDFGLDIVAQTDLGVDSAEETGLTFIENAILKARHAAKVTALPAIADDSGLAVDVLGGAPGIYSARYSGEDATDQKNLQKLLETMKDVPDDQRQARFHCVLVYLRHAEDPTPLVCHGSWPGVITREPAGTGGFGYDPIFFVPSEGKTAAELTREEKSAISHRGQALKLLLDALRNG` , state its measured total protein half-life in vivo.
Response: 4.23
